This section presents compounds with their documented inhibition values.
Molecular target: Calcium/calmodulin-dependent protein kinase type 1D (Homo sapiens) (UniProt Q8IU85);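 further: reported figure is the mean percent inhibition of CAMK1D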
Sequence (Q8IU85 whole entry, looked up): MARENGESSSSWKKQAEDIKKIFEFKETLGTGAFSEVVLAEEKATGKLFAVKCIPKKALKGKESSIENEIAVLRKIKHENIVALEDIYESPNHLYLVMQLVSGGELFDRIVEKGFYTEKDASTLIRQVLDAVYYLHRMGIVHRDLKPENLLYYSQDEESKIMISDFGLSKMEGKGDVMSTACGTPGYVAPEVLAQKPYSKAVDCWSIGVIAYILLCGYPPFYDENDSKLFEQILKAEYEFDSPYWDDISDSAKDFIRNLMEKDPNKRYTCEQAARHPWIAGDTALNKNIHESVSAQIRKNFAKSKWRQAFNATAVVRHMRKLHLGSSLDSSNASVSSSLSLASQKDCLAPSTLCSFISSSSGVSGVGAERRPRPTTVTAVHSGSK
Details: at 1 µM
readout_kind: inhibition (%)

>>> print(df.to_string())
                            compound_smiles  readout_kind    val
0  CN1CCC(n2cnc(-c3ccc(F)cc3)c2-c2ccnc(NCCO)n2)CC1    inhibition  -1.38
1  COC(=O)Nc1nc2cc(Oc3ccc(NC(=O)Nc4ccccc4)cc3)ccc2[nH]1    inhibition  -1.18
2  COc1ccc(-c2nn3ncccc3c2-c2ccnc(Nc3ccc(F)c(F)c3)n2)cc1    inhibition   1.91
3     COc1cccc(Nc2nccc(-c3cnn4ncccc34)n2)c1    inhibition   4.71
4  CC(C)c1ccc(-c2cc(-c3c[nH]nc3-c3ccccn3)ccn2)cc1    inhibition   0.06

----------
The following compounds are listed with their measured inhibition values.
Biological target: Dual specificity mitogen-activated protein kinase kinase 1 (Homo sapiens) (UniProt Q02750);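 further: values reported are mean inhibition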
Sequence (Q02750 whole entry): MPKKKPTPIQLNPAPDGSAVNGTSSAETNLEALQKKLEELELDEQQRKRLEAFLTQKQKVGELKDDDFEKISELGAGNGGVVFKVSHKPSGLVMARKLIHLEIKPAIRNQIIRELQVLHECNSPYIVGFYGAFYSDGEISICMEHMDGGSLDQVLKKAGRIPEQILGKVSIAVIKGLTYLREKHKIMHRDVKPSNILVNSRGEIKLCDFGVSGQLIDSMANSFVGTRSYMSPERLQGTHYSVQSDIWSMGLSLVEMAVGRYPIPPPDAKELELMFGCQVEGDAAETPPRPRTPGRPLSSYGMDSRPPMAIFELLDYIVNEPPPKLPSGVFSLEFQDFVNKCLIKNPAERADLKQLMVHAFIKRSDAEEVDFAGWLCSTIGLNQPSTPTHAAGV
Details: at 1 µM
readout_kind: inhibition

In [3]: df
Out[3]:
                            compound_smiles    val
0  CNC(=O)c1ncccc1Nc1nc(Nc2cc3c(cc2OC)CCCN3C(=O)CN(C)C)nc2[nH]ccc12  3.53%
1  CC(C)c1ccc(-c2cc(-c3c[nH]nc3-c3ccccn3)ccn2)cc1  2.47%
2  CNC(=O)c1sc(-n2cnc3cc(OC)c(OC)cc32)cc1OCc1ccccc1C(F)(F)F   3.6%
3           CNC(=O)c1cncc(/C=C/c2ccccc2C)c1  5.22%
4  N#Cc1ccc2c(-c3ccnc(NC4CC4)n3)c(-c3ccc(F)cc3)nn2c1  3.35%
5        FC(F)(F)CNc1nccc(-c2cnn3ncccc23)n1  2.41%
6  COc1cc2c(cc1Nc1nc(Nc3cccc(F)c3C(N)=O)c3cc[nH]c3n1)N(C(=O)CN1CCN(C(C)C)CC1)CC2  4.11%
7  CN1CCC(n2cnc(-c3ccc(F)cc3)c2-c2ccnc(NCCO)n2)CC1  5.25%
8  Cc1nnc(-c2cccc(-c3ccc(C(=O)NCC4CC4)cc3)c2)o1   4.7%
9  COC(=O)Nc1nc2ccc(Oc3ccc(NC(=O)Nc4cc(C(F)(F)F)ccc4F)cc3)cc2s1  1.52%

----------
Measured inhibition, listed per entry.
Molecular target: Aurora kinase B (Homo sapiens);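 further: reported percent inhibition is a mean value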
Conditions: at 1 µM
readout_kind: inhibition (%)

In [3]: df
Out[3]:
                                    compound                 target_of_assay    val
 0  CNC(=O)c1sc(-n2cnc3cc(OC)c(OC)cc32)cc1OCc1ccccc1C(F)(F)F  Aurora kinase B (Homo sapiens)   16.6
 1  NS(=O)(=O)c1ccc(N/N=C2\C(=O)Nc3ccc(C(=O)NCc4ccncc4)cc32)cc1  Aurora kinase B (Homo sapiens)     11
 2  CC1(C)CC(n2cnc(-c3ccc(F)cc3)c2-c2ccnc(N)n2)CC(C)(C)N1  Aurora kinase B (Homo sapiens)  -0.43
 3  COc1cc(N2CCN(C(C)C)CC2)ccc1Nc1nc(Nc2cccc3ncccc23)c2cc[nH]c2n1  Aurora kinase B (Homo sapiens)    4.9
 4  Cc1nnc(-c2cccc(-c3ccc(C(=O)NCC4CC4)cc3)c2)o1  Aurora kinase B (Homo sapiens)   3.09
 5  N#Cc1ccc2c(-c3ccnc(NC4CC4)n3)c(-c3ccc(F)cc3)nn2c1  Aurora kinase B (Homo sapiens)  -0.38
 6  CNC(=O)c1ncccc1Nc1nc(Nc2cc3c(cc2OC)CCCN3C(=O)CN(C)C)nc2[nH]ccc12  Aurora kinase B (Homo sapiens)   8.73
 7     COc1cccc(Nc2nccc(-c3cnn4ncccc34)n2)c1  Aurora kinase B (Homo sapiens)   72.3
 8  COC(=O)Nc1nc2ccc(Oc3ccc(NC(=O)Nc4cc(C(F)(F)F)ccc4F)cc3)cc2s1  Aurora kinase B (Homo sapiens)   30.8
 9  CCS(=O)(=O)c1ccc(OC)c(Nc2ncc(-c3cccc(C(C)=O)c3)o2)c1  Aurora kinase B (Homo sapiens)   6.28
10    O=C(Nc1n[nH]c2nnc(-c3cccnc3)cc12)C1CC1  Aurora kinase B (Homo sapiens)   3.67
11           CNC(=O)c1cncc(/C=C/c2ccccc2C)c1  Aurora kinase B (Homo sapiens)  -0.01
12  CCN1CCC(C(=O)Nc2n[nH]c3nnc(-c4cccc(F)c4F)cc23)CC1  Aurora kinase B (Homo sapiens)   3.97
13  CC1=C(C(=O)Nc2ccc3[nH]ncc3c2)C(c2ccc(F)cc2)N=C(c2ccc(C(F)(F)F)nc2)N1 (stereo not given)  Aurora kinase B (Homo sapiens)   16.9
14  c1ccc(-c2n[nH]cc2-c2ccnc(-c3ccc(OCCn4ccnc4)cc3)c2)nc1  Aurora kinase B (Homo sapiens)   15.1
15  NC(=O)c1ccc2c(-c3ccnc(NCCCO)n3)c(-c3ccc(F)cc3)nn2c1  Aurora kinase B (Homo sapiens)   0.26
16  CS(=O)(=O)CCNCc1ccoc1-c1ccc2ncnc(Nc3ccc(OCc4ccccc4)cc3)c2c1  Aurora kinase B (Homo sapiens)   8.33
17  NS(=O)(=O)c1cccc(N/C=C2\C(=O)Nc3ccccc32)c1  Aurora kinase B (Homo sapiens)   40.5
18  OCCCNc1nccc(-c2c(-c3ccc(F)cc3)nn3cc(C(F)(F)F)ccc23)n1  Aurora kinase B (Homo sapiens)   9.08
19          N#Cc1cccc(Nc2ncc(-c3ccccc3)o2)c1  Aurora kinase B (Homo sapiens)   1.97

----------
Test system: Epidermal growth factor receptor (Homo sapiens), P00533 [L861Q]
Sequence (P00533 whole entry L861Q): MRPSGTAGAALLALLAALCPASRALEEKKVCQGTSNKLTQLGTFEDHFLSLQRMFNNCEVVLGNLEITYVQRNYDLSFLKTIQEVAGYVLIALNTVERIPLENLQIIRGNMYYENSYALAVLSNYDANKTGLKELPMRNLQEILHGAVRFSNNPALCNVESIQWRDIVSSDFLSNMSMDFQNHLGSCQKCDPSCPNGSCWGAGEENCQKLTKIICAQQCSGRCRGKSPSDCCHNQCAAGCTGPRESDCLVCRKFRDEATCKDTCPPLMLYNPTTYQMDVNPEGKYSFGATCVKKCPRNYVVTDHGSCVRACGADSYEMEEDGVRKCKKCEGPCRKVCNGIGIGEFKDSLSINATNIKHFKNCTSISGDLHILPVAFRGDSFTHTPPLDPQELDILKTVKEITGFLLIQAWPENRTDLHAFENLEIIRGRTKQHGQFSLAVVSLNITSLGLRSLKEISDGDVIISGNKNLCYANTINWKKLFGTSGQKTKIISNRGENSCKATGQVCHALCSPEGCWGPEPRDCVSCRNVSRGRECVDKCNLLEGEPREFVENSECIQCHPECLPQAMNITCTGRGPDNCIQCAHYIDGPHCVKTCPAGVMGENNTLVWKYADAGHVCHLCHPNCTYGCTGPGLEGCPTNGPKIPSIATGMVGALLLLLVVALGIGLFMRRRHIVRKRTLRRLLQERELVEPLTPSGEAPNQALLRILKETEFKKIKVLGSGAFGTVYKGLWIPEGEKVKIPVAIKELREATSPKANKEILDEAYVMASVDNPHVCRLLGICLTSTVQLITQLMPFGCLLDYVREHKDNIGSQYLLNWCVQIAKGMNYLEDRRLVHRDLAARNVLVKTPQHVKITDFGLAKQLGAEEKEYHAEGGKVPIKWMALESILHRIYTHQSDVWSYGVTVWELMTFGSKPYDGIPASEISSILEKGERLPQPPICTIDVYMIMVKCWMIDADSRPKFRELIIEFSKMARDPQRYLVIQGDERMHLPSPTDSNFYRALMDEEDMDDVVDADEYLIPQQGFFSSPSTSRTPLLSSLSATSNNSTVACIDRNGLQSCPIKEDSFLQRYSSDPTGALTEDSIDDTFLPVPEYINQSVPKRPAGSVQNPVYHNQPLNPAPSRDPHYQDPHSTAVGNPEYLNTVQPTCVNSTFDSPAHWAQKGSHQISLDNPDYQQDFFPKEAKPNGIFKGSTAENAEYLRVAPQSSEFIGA
Conditions: at 0.1 µM
This listing pairs compounds with measured inhibition.
readout_kind: inhibition

                            compound_smiles  readout_kind     val
0      Cc1cc(O)cc(C)c1/C=C/c1cncc(C(N)=O)c1    inhibition   3.84%
1        FC(F)(F)CNc1nccc(-c2cnn3ncccc23)n1    inhibition   0.58%
2  Fc1ccc(Nc2nccc(-c3c(-c4ccc(C(F)(F)F)cc4)nn4ncccc34)n2)cc1F    inhibition   2.39%
3           CNC(=O)c1cncc(/C=C/c2ccccc2C)c1    inhibition   3.44%
4  CN(C)CCNC(=O)Nc1ccc(N(C)c2ccnc(Nc3ccc(CS(C)(=O)=O)cc3)n2)cc1    inhibition    2.9%
5         COc1ccc(Nc2ncc(-c3ccccc3)o2)cc1OC    inhibition  -1.19%

----------
Biological target: Ribosomal protein S6 kinase alpha-6 (Homo sapiens);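 further: each value is a mean inhibition of RSK4 from a GSK PKIS panel screen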
Settings: at 1 µM
readout_kind: inhibition (%)

                            compound_smiles  readout_kind   val
0      Cc1cc(O)cc(C)c1/C=C/c1cncc(C(N)=O)c1    inhibition  1.18
1  c1ccc(-c2n[nH]cc2-c2ccnc(-c3ccc(OCCn4ccnc4)cc3)c2)nc1    inhibition  1.74
2  COc1cc(N2CCN(C(C)C)CC2)ccc1Nc1nc(Nc2cccc3ncccc23)c2cc[nH]c2n1    inhibition  2.88
3  COc1ccccc1-c1cc(/C=C2\C(=O)Nc3ncc(Br)cc32)cc(Br)c1O    inhibition  2.05
4  CN(c1ccc(NC(=O)NCCN2CCOCC2)cc1)c1ccnc(Nc2ccc(CS(C)(=O)=O)cc2)n1    inhibition  2.33

----------
System: Mast/stem cell growth factor receptor Kit (Homo sapiens), P10721 [D816V]
Sequence (P10721 whole entry D816V): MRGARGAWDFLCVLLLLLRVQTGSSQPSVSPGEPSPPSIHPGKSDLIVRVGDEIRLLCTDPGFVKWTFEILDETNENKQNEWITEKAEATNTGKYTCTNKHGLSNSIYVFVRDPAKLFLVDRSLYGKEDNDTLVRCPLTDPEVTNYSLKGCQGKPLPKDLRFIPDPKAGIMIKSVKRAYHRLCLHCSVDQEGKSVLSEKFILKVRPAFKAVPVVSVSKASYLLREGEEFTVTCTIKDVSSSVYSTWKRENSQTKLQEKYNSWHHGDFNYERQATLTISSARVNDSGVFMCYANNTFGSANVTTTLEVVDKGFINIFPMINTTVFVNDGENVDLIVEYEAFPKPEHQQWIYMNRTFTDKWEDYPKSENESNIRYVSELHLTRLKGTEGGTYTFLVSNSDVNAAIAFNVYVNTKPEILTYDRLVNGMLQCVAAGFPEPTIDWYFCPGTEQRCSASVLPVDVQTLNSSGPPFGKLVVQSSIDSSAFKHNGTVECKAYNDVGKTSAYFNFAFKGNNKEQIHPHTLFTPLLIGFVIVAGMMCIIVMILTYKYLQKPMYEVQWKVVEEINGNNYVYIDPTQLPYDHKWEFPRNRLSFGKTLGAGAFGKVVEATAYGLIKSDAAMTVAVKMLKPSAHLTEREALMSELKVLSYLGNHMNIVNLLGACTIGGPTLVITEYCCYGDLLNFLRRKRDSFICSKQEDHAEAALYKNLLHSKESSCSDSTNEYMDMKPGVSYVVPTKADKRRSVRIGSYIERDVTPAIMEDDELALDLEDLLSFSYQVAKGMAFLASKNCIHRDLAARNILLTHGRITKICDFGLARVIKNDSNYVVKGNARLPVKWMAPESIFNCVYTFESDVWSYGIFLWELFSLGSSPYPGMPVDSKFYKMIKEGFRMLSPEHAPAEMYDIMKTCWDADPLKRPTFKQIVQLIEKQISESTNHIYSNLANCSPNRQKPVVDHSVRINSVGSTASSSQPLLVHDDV
Conditions: at 0.1 µM
A collection of compounds and their measured inhibition
readout_kind: inhibition (%)

In [3]: df
Out[3]:
                             compound_smiles  readout_kind    val
 0  CCS(=O)(=O)c1ccc(OC)c(Nc2ncc(-c3cccc(C(C)=O)c3)o2)c1    inhibition   5.74
 1        O=C1Nc2ccccc2/C1=C1\CCc2cc(O)ccc21    inhibition   4.08
 2  CN(C)CCNC(=O)Nc1ccc(N(C)c2ccnc(Nc3ccc(CS(C)(=O)=O)cc3)n2)cc1    inhibition   3.66
 3  COc1cccc(-n2ncc3c(N/N=C/c4ccc(C(=O)NCCN(C)C)cc4)ncnc32)c1    inhibition    7.1
 4  N#Cc1ccc2c(-c3ccnc(NC4CC4)n3)c(-c3ccc(F)cc3)nn2c1    inhibition  -1.04
 5        FC(F)(F)CNc1nccc(-c2cnn3ncccc23)n1    inhibition   0.88
 6     COc1cccc(Nc2nccc(-c3cnn4ncccc34)n2)c1    inhibition  -1.05
 7  COc1cc(N2CCN(C(C)C)CC2)ccc1Nc1nc(Nc2cccc3ncccc23)c2cc[nH]c2n1    inhibition  -1.39
 8  CS(=O)(=O)CCNCc1ccoc1-c1ccc2ncnc(Nc3ccc(OCc4ccccc4)cc3)c2c1    inhibition   5.01
 9  COC(=O)Nc1nc2cc(Oc3ccc(NC(=O)Nc4ccccc4)cc3)ccc2[nH]1    inhibition   2.82
10  Fc1cccc(COc2ccc(Nc3ncncc3C#Cc3ccccc3)cc2Cl)c1    inhibition   9.06
11  CCN1CCC(C(=O)Nc2n[nH]c3nnc(-c4cccc(F)c4F)cc23)CC1    inhibition  -0.19
12  CS(=O)(=O)Nc1ccc(-c2ccc3c(NC(=O)C4CC4)n[nH]c3c2)cc1    inhibition   2.91
13                 Cn1c(-c2nonc2N)nc2cnccc21    inhibition   1.72
14    c1cnn2ncc(-c3ccnc(NCCCN4CCOCC4)n3)c2c1    inhibition   6.89
15  O=C(O[C@H]1CN[C@H](C#Cc2cc3ncnc(Nc4ccc5c(cnn5Cc5ccccc5)c4)c3s2)C1)N1CCOCC1    inhibition  -4.43
16    CCn1c(-c2nonc2N)nc2cncc(C(=O)NCCNC)c21    inhibition   12.8
17  Cc1cc(O)cc(C)c1/C=C/c1cncc(C(=O)OC(C)(C)C)c1    inhibition   1.84
18  NS(=O)(=O)c1ccc(N/N=C2\C(=O)Nc3ccc(C(=O)NCc4ccncc4)cc32)cc1    inhibition   3.05
19  c1ccc(-c2n[nH]cc2-c2ccnc(-c3ccc(OCCn4ccnc4)cc3)c2)nc1    inhibition   3.19
20  NC(=O)c1ccc2c(-c3ccnc(NCCCO)n3)c(-c3ccc(F)cc3)nn2c1    inhibition   8.24

Data provenance is ChEMBL document CHEMBL1961873.
